Target: human progesterone receptor-B (Homo sapiens, UniProt P06401)
Construct: expressed in transfected cells; host or cells: Chinese hamster ovary (CHO) cells, line CHO-PRB-pMMTV-LUC 1E2-A2
Assay: Progesterone receptor-B transactivation assay, progestagenic (agonist) activity, CHO-PRB-pMMTV-LUC 1E2-A2 cells
Format: cell-based
Settings: CHO cells stably transfected with human progesterone receptor-B and MMTV-luciferase reporter; read-out: Progestagenic activity EC50
pEC50: −log10 of the molar value.
READOUT_KIND: pEC50

INSERT INTO assay_data (molecule, measured_target, reading) VALUES
  ('N#Cc1ccc2c(c1)N1CCC[C@H](NC(=O)C(F)(F)F)[C@H]1c1ccccc1O2 (relative stereo) [Example 63]', 'human progesterone receptor-B (Homo sapiens, UniProt P06401)', '> 8.00'),
  ('CC(=O)N[C@H]1CCCN2c3c(ccc(Cl)c3Cl)Oc3ccccc3[C@H]12 (relative stereo) [Example 47]', 'human progesterone receptor-B (Homo sapiens, UniProt P06401)', '> 8.00'),
  ('FC(F)(F)C(=S)NC1CCCN2c3cc(Cl)ccc3Cc3ccccc3C12 (stereo not shown) [Example 20]', 'human progesterone receptor-B (Homo sapiens, UniProt P06401)', '> 8.00'),
  ('O=C(N[C@H]1CCCN2c3c(Br)cccc3Oc3ccccc3[C@H]12)C(F)(F)F (relative stereo) [Example 51]', 'human progesterone receptor-B (Homo sapiens, UniProt P06401)', '> 8.00');

Prompt: What value of measured pEC50 is listed for O=C(N[C@H]1CCCN2c3cc(Cl)c(NS(=O)(=O)c4ccccc4)cc3Oc3ccccc3[C@H]12)C(F)(F)F (relative stereo) [Example 45] ?
Completion: 7.00 to 8.00

Prompt: What value of measured pEC50 is listed for CC(C)CN[C@H]1CCCN2c3cc(Cl)ccc3Oc3ccccc3[C@H]12 (relative stereo) [Example 36] ?
Completion: 5.00 to 7.00

Prompt: What value of measured pEC50 is listed for Cc1cc(F)cc2c1N1CCC[C@H](NC(=O)C(F)(F)F)[C@H]1c1ccccc1O2 (relative stereo) [Example 60] ?
Completion: > 8.00

Prompt: What value of measured pEC50 is listed for O=C(N[C@H]1CCCN2c3cc(Cl)c(Cl)cc3Oc3ccccc3[C@H]12)C(F)(F)F (relative stereo) [Example 38A] ?
Completion: 7.00 to 8.00

Prompt: What value of measured pEC50 is listed for Cc1ccc2c(c1)Oc1ccc(Cl)cc1N1CCC[C@H](NC(=O)C(F)(F)F)[C@@H]21 (relative stereo) [Example 70] ?
Completion: 7.00 to 8.00

Prompt: What value of measured pEC50 is listed for N#Cc1cccc2c1N1CCC[C@H](NC(=O)C(F)(F)F)[C@H]1c1ccccc1O2 (relative stereo) [Example 53] ?
Completion: > 8.00

Prompt: What value of measured pEC50 is listed for O=C(NC1CCCN2c3cc(Cl)ccc3Oc3ccccc3C12)C(F)F (stereo not drawn) [13 (1S14bR isomer)] ?
Completion: > 8.00

Prompt: What value of measured pEC50 is listed for O=C(N[C@H]1CCCN2c3c(ccc(Cl)c3Cl)Oc3ccccc3[C@H]12)C(F)(F)F (relative stereo) [Example 38B] ?
Completion: > 8.00

Prompt: What value of measured pEC50 is listed for FCC(=S)N[C@H]1CCCN2c3cc(Cl)ccc3Oc3ccccc3[C@H]12 [Example 22] ?
Completion: > 8.00

Prompt: What value of measured pEC50 is listed for CC(=O)c1cccc2c1N1CCC[C@H](NC(=O)C(F)(F)F)[C@H]1c1ccccc1O2 (relative stereo) [Example 52] ?
Completion: > 8.00

###

Biological target: human progesterone receptor-B (Homo sapiens, UniProt P06401)
Construct: expressed in transfected cells; host or cells: Chinese hamster ovary (CHO) cells, line CHO-PRB-pMMTV-LUC 1E2-A2
Test: Progesterone receptor-B transactivation assay, antiprogestagenic activity (inhibition of luciferase transactivation induced by Org 2058)
Assay type: cell-based
Conditions: in the presence of 1 nM (16α)-16-ethyl-21-hydroxy-19-norpregn-4-ene-3,20-dione (Org 2058); read-out: Anti-progestagenic activity EC50
Procedure: The (anti-)progestagenic activity of a compound of the invention (EC 50 and intrinsic activity) was determined in an in vitro bioassay of Chinese hamster ovary (CHO) cells stably transfected with the human progesterone receptor-B expression plasmid and with a reporter plasmid in which the MMTV-promoter is linked to the luciferase reporter gene. […]
Entries and their EC50

INSERT INTO measurements (compound, reading) VALUES
  ('O=C(NC1CCCN2c3cc(Cl)ccc3Oc3ccccc3C12)C(F)F (stereo not drawn) [13 (1S14bR isomer)]', '< 10 nM'),
  ('O=C(N[C@H]1CCCN2c3cc(F)ccc3Oc3ccccc3[C@H]12)C(F)(F)F (relative stereo)', '100 to 10000 nM'),
  ('S=C(NC1CCCCC1)N[C@H]1CCCN2c3cc(Cl)ccc3Oc3ccccc3[C@H]12 (relative stereo)', '100 to 10000 nM'),
  ('CC(C)CNC(=S)N[C@H]1CCCN2c3cc(Cl)ccc3Oc3ccccc3[C@H]12 (relative stereo)', '100 to 10000 nM'),
  ('CC(C)(C)OC(=O)CN[C@H]1CCCN2c3cc(Cl)ccc3Sc3ccccc3[C@H]12 (relative stereo)', '10 to 100 nM');

Prompt: What value of measured EC50 is listed for FCC(=S)NC1CCCN2c3cc(Cl)ccc3Oc3ccccc3C12 [22 (1S,14bR isomer)] ?
Completion: 10 to 100 nM

Prompt: What value of measured EC50 is listed for CC(=O)N[C@H]1CCCN2c3cc(Cl)ccc3Oc3ccccc3[C@H]12 (relative stereo) ?
Completion: 100 to 10000 nM

###

Molecular target: human progesterone receptor-B (Homo sapiens)
Construct: expressed in transfected cells; host or cells: Chinese hamster ovary (CHO) cells, line CHO-PRB-pMMTV-LUC 1E2-A2
Sequence (P06401 1-933): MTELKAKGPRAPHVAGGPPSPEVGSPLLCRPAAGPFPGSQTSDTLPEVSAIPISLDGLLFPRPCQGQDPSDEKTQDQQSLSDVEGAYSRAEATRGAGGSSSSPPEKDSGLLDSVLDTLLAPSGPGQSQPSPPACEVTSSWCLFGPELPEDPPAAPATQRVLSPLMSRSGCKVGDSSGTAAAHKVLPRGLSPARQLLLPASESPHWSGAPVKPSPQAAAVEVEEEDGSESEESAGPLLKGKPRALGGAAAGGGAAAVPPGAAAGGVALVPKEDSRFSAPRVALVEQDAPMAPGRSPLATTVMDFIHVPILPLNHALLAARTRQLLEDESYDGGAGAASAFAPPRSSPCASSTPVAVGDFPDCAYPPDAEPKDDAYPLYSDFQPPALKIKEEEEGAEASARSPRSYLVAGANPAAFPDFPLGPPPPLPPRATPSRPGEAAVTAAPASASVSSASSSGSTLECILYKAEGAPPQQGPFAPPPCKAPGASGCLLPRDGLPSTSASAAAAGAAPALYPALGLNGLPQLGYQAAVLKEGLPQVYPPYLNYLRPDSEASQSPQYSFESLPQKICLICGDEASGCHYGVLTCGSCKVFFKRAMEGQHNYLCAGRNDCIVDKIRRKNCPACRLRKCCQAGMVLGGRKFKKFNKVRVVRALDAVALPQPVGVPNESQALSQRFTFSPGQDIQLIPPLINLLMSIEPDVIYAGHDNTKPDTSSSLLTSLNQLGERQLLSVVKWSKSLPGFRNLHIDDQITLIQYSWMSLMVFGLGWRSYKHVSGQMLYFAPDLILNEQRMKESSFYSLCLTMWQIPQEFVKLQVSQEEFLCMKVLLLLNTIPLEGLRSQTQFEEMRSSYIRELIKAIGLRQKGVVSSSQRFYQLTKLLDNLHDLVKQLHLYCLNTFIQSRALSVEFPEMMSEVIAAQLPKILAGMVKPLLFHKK
Test: Progesterone receptor-B transactivation assay, antiprogestagenic activity (inhibition of luciferase transactivation induced by Org 2058)
Assay type: cell-based
Conditions: in the presence of 1 nM (16α)-16-ethyl-21-hydroxy-19-norpregn-4-ene-3,20-dione (Org 2058); read-out: Anti-progestagenic activity EC50
pEC50: −log10 of the molar value.
READOUT_KIND: pEC50

Field: example entries. Status: answers known.
INSERT INTO measurements (compound, readout_kind, reading) VALUES
  ('CC(C)(C)NC(=S)NC1CCCN2c3cc(Cl)ccc3Oc3ccccc3C12 (stereo not shown)', 'pEC50', '5.00 to 7.00'),
  ('COCCN[C@H]1CCCN2c3cc(Cl)ccc3Oc3ccccc3[C@H]12 (relative stereo)', 'pEC50', '7.00 to 8.00'),
  ('N=C(N[C@H]1CCCN2c3cc(Cl)ccc3Oc3ccccc3[C@H]12)C(F)(F)F (relative stereo)', 'pEC50', '7.00 to 8.00'),
  ('CC(=S)N[C@H]1CCCN2c3cc(Cl)ccc3Oc3ccccc3[C@H]12 (relative stereo)', 'pEC50', '5.00 to 7.00'),
  ('O=C(N[C@H]1CCCN2c3cc(Cl)c(Cl)cc3Oc3ccccc3[C@H]12)C(F)(F)F (relative stereo) [Example 38A]', 'pEC50', '5.00 to 7.00');

Prompt: What value of measured pEC50 is listed for O=C(N[C@H]1CCCN2c3cc(Cl)ccc3Cc3ccccc3[C@H]12)C(F)(F)F (relative stereo) ?
Completion: 7.00 to 8.00

Prompt: What value of measured pEC50 is listed for O=C(N[C@H]1CCCN2c3cc(Cl)c(Br)cc3Oc3ccccc3[C@H]12)C(F)(F)F (relative stereo) ?
Completion: 5.00 to 7.00
